I'd appreciate it if you could supply pIC50 values for the items below.
- system: SREBP-2 (Homo sapiens (Human), UniProt Q12772)
- protocolText: In vitro assay SREBP-2: PathHunter U2OS SREBP-2 Nuclear Translocation Cell Line, U18666A-stimulated
- Type: cell-based
- recordedConditions: PathHunter U2OS SREBP-2 nuclear translocation cells, U18666A 10 μM, overnight (16 hours)
pIC50: −log10 of the molar value.

query: Provide measured pIC50 value, entry: C[C@H](OC(=O)N(C)C)[C@H]1CC[C@H]2[C@@H]3CC=C4C[C@@H](O)CC[C@]4(C)[C@H]3CC[C@]12C [Example 242]
result: 6.00 to 6.60

query: Answer with the recorded pIC50 of COC(=O)N1CCC(N(C)C(=O)CC[C@@H](C)[C@H]2CC[C@H]3[C@@H]4CC=C5C[C@@H](O)CC[C@]5(C)[C@H]4CC[C@]23C)CC1 [Example 643] only.
result: > 6.60

query: Fill in pIC50 for record C[C@H](COc1cccnc1)[C@H]1CC[C@H]2[C@@H]3CC=C4C[C@@H](O)CC[C@]4(C)[C@H]3CC[C@]12C [Example 180]
result: > 6.60

query: Please supply the value of reported pIC50 for the item C[C@H](CCc1cnsc1)[C@H]1CC[C@H]2[C@@H]3CC=C4C[C@@H](O)CC[C@]4(C)[C@H]3CC[C@]12C [Example 176]
result: 6.00 to 6.60

* * *

Provide the reported IC50 of each item.
- system: SREBP-2 (Homo sapiens (Human))
- protocolText: In vitro assay SREBP-2: PathHunter U2OS SREBP-2 Nuclear Translocation Cell Line, U18666A-stimulated
- Assay type: cell-based
- recordedConditions: PathHunter U2OS SREBP-2 nuclear translocation cells, U18666A 10 μM, overnight (16 hours)

query: Look up and report measured IC50 for this entry: C[C@H](CCC(=O)N1CC[C@H](NC(=O)c2cnccn2)C1)[C@H]1CC[C@H]2[C@@H]3CC=C4C[C@@H](O)CC[C@]4(C)[C@H]3CC[C@]12C
result: < 250 nM

query: Kindly indicate its recorded IC50. Item: C[C@H](CNC(=O)N(C)C)[C@H]1CC[C@H]2[C@@H]3CC=C4C[C@@H](O)CC[C@]4(C)[C@H]3CC[C@]12C
result: 250 to 1000 nM

query: Tell me measured IC50 for C[C@H](CCC(=O)N1CC[C@H](CO)O1)[C@H]1CC[C@H]2[C@@H]3CC=C4C[C@@H](O)CC[C@]4(C)[C@H]3CC[C@]12C please.
result: 250 to 1000 nM

query: // Input: C[C@H](Oc1cnccc1CO)[C@H]1CC[C@H]2[C@@H]3CC=C4C[C@@H](O)CC[C@]4(C)[C@H]3CC[C@]12C [Example 437] . Output its IC50 only.
result: 250 to 1000 nM

query: Note IC50 for the compound shown: CCN(CC)C(=O)C(=O)O[C@@H](C)[C@H]1CC[C@H]2[C@@H]3CC=C4C[C@@H](O)CC[C@]4(C)[C@H]3CC[C@]12C
result: < 250 nM

query: Please look at this compound and report its IC50: CNC(=O)c1ccc(O[C@@H](C)[C@H]2CC[C@H]3[C@@H]4CC=C5C[C@@H](O)CC[C@]5(C)[C@H]4CC[C@]23C)cn1
result: 250 to 1000 nM

* * *

Assignment: determine reported pIC50 for the given compounds.
- system: SREBP-2 (Homo sapiens (Human), UniProt Q12772)
- protocolText: In vitro assay SREBP-2: PathHunter U2OS SREBP-2 Nuclear Translocation Cell Line, U18666A-stimulated
- Format: cell-based
- recordedConditions: PathHunter U2OS SREBP-2 nuclear translocation cells, U18666A 10 μM, overnight (16 hours)
pIC50: −log10 of the molar value.

query: For the compound C[C@H](CCC(=O)N(C)CC(=O)O)[C@H]1CC[C@H]2[C@@H]3CC=C4C[C@@H](O)CC[C@]4(C)[C@H]3CC[C@]12C , give its reported pIC50.
result: < 5.00

query: Look up and state reported pIC50 for COC1CCN(C(=O)CC[C@@H](C)[C@H]2CC[C@H]3[C@@H]4CC=C5C[C@@H](O)CC[C@]5(C)[C@H]4CC[C@]23C)CC1
result: > 6.60

query: Supply measured pIC50 of C[C@H](CCC(=O)N1CCN(c2ccnc(OCCO)n2)CC1)[C@H]1CC[C@H]2[C@@H]3CC=C4C[C@@H](O)CC[C@]4(C)[C@H]3CC[C@]12C in your reply.
result: > 6.60

query: Input Cc1nccc(N2CCN(C(=O)CC[C@@H](C)[C@H]3CC[C@H]4[C@@H]5CC=C6C[C@@H](O)CC[C@]6(C)[C@H]5CC[C@]34C)C[C@@H]2C)n1 , output reported pIC50.
result: > 6.60

query: Dear colleague, please send me the reported pIC50 for C[C@H](CCC(=O)N1CC[C@H](Nc2ccncc2)C1)[C@H]1CC[C@H]2[C@@H]3CC=C4C[C@@H](O)CC[C@]4(C)[C@H]3CC[C@]12C when you can.
result: 6.00 to 6.60

* * *

- system: SREBP-2 (Homo sapiens (Human), UniProt Q12772)
- protocolText: SREBP-2 IC50 (category A-D, Tables 1 and 3)
- Assay type: cell-based
- recordedConditions: Table 3, trans-AB examples
pIC50: −log10 of the molar value.
Consider the following molecules; for each one, report its pIC50.

query: Please tell me the measured pIC50 for C=C[C@@](O)(CC[C@@H](C)[C@H]1CC[C@H]2[C@@H]3CC=C4C[C@@H](O)CC[C@]4(C)[C@H]3CC[C@]12C)C(F)(F)F ; system: SREBP-2 (Homo sapiens (Human), UniProt Q12772).
result: > 6.60

query: Report measured pIC50 on SREBP-2 (Homo sapiens (Human), UniProt Q12772); entry: CCON(C)C(=O)CC[C@@H](C)[C@H]1CC[C@H]2[C@@H]3CC=C4C[C@@H](O)CC[C@]4(C)[C@H]3CC[C@]12C
result: > 6.60

query: Please look at C[C@H](CC[C@](O)(C1CC1)C(F)(F)F)[C@H]1CC[C@H]2[C@@H]3CC=C4C[C@@H](O)CC[C@]4(C)[C@H]3CC[C@]12C and tell me its recorded pIC50 on SREBP-2 (Homo sapiens (Human), UniProt Q12772).
result: > 6.60

query: Using SREBP-2 (Homo sapiens (Human), UniProt Q12772) as the test system, report measured pIC50 of C[C@H](CCC(=O)N(C)C)[C@H]1CC[C@H]2[C@@H]3CC[C@H]4C[C@@H](O)CC[C@]4(C)[C@H]3[C@@H](O)C[C@]12C .
result: 6.00 to 6.60

query: Given CC[C@](O)(CC[C@@H](C)[C@H]1CC[C@H]2[C@@H]3CC=C4C[C@@H](O)CC[C@]4(C)[C@H]3CC[C@]12C)C(F)(F)F , report its pIC50 on SREBP-2 (Homo sapiens (Human), UniProt Q12772).
result: > 6.60

query: Consider the molecule CCCCON(C)C(=O)CC[C@@H](C)[C@H]1CC[C@H]2[C@@H]3CC=C4C[C@@H](O)CC[C@]4(C)[C@H]3CC[C@]12C tested on SREBP-2 (Homo sapiens (Human), UniProt Q12772); state its pIC50.
result: > 6.60

query: State pIC50 on SREBP-2 (Homo sapiens (Human), UniProt Q12772). Entry: C[C@H](CCC(=O)N1CC[C@@H](CO)O1)[C@H]1CC[C@H]2[C@@H]3CC=C4C[C@@H](O)CC[C@]4(C)[C@H]3CC[C@]12C
result: > 6.60

query: Provide SREBP-2 (Homo sapiens (Human), UniProt Q12772) pIC50 reading for CCC1(O)CCN(C(=O)CC[C@@H](C)[C@H]2CC[C@H]3[C@@H]4CC[C@H]5C[C@@H](O)CC[C@]5(C)[C@H]4[C@@H](O)C[C@]23C)CC1 .
result: 6.00 to 6.60

query: Provide pIC50, system SREBP-2 (Homo sapiens (Human), UniProt Q12772), entry CC[C@@](O)(CC[C@@H](C)[C@H]1CC[C@H]2[C@@H]3CC=C4C[C@@H](O)CC[C@]4(C)[C@H]3CC[C@]12C)C(F)(F)F
result: > 6.60

query: Write pIC50 of C[C@H](CC[C@@](O)(C1CCC1)C(F)(F)F)[C@H]1CC[C@H]2[C@@H]3CC=C4C[C@@H](O)CC[C@]4(C)[C@H]3CC[C@]12C ; system used: SREBP-2 (Homo sapiens (Human), UniProt Q12772)
result: 6.00 to 6.60

query: Fill in pIC50 for C=C[C@](O)(CC[C@@H](C)[C@H]1CC[C@H]2[C@@H]3CC=C4C[C@@H](O)CC[C@]4(C)[C@H]3CC[C@]12C)C(F)(F)F tested with SREBP-2 (Homo sapiens (Human), UniProt Q12772).
result: > 6.60

query: Report pIC50 on SREBP-2 (Homo sapiens (Human), UniProt Q12772) for this entry: C[C@H](CC[C@@](O)(C1CC1)C(F)(F)F)[C@H]1CC[C@H]2[C@@H]3CC=C4C[C@@H](O)CC[C@]4(C)[C@H]3CC[C@]12C
result: 6.00 to 6.60
